Form field: pEC50 (one value per entry).
biological target: Dopamine D3 receptor (Homo sapiens, UniProt P35462); test: GTPγS Scintillation Proximity Assay, agonist and antagonist mode; type: biochemical; conditions: Agonist Activity (EC50), D3, membrane extracts
Sequence (P35462 whole entry): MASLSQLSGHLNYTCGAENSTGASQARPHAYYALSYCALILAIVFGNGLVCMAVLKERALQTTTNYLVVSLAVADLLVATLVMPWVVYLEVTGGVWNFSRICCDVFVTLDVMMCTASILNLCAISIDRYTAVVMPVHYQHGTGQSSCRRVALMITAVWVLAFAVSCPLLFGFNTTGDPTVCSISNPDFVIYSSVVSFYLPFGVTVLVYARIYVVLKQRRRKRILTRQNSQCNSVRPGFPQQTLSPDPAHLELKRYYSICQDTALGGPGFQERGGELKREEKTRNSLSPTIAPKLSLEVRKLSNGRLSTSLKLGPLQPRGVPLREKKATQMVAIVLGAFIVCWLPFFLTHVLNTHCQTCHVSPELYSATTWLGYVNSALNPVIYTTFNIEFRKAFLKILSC
Quick note: pEC50 means taking -log10 of the concentration in moles per liter.

CCN(CC(F)(F)F)C(=O)N[C@H]1C[C@@H]2c3cccc4[nH]c(C5CC5)c(c34)C[C@H]2N(C)C1 [Compound A17H]
8.09

// query Entry under review: CC[C@@H](CO)NC(=O)[C@@H]1C[C@@H]2c3cccc4c3c(c(C3CC3)n4C)C[C@H]2N(C)C1 [Compound D13H] . Reported pEC50?
// result 7.32
